Attribution: PubChem BioAssay (NCI)

- System: UACC-62 melanoma
- assayProtocol: NCI tumour cell line growth inhibition, 48 h; in the data active = GI50 below about 0.43 µM; inactive = the rest
Parameter call: string, one of 1.0 for active, 0.0 for inactive

Consider the worked cases shown below.
molecule	testedTarget	categoryLabel
O=C(c1ccccc1)C(Br)C(Br)c1cccc([N+](=O)[O-])c1 (stereo not given)	UACC-62 melanoma	0.0
COc1cc(Cl)cc(-c2nn(-c3cccc(NC(=O)Nc4cc(C(F)(F)F)cc(C(F)(F)F)c4)c3)cc2-c2ccncc2)c1	UACC-62 melanoma	1.0
Cc1ccc2c(c1)C(C)Cc1c(Cl)ncnc1N2C (stereo not given)	UACC-62 melanoma	0.0

Data request: Which outcome did this test record for the molecule Cc1cc(NCc2cc(Nc3ccnc4cc(Cl)ccc34)ccc2F)nc(N2CCN(C)CC2)n1 ?
Data returned: 0.0

Data request: Write down the call the test reported for this molecule. Item: COc1ccc(/C(=N\O)c2cc(C)c(OC)c(C)c2)cc1O
Data returned: 1.0

Data request: Test call, this molecule: CCOP(=O)(C/C=C\Cn1cnc(C(N)=O)c1N)OCC
Data returned: 0.0

* * *

- Tested on: HT29 colon
- assayProtocol: NCI tumour cell line growth inhibition, 48 h
Where a SMILES comes first, the peptide text is derived from it. The star is where a group is joined. Ethyl(2-NMe3+) = C[N+](C)(C)CC*; Boc = CC(C)(C)OC(=O)*
measurementType: TGI

molecule	testedTarget	observedResult
COC(=O)NN=C1C(C)(C)C(=O)C1(C)C	HT29 colon	> 100 µM
Cc1c(F)c(N)c2c(=O)cc(-c3ccc(N)c(F)c3)oc2c1F	HT29 colon	98.6 µM
Cn1c(Cl)cn2c3nc4ccccc4nc3c(=O)c(C#N)c12	HT29 colon	> 100 µM

Data request: Quickly give me recorded TGI for CC1=C(C)C1[N+](=O)[O-]
Data returned: > 100 µM

Data request: Return reported TGI. Input molecule: CC(NC(=O)C(Cc1ccc(OCC[N+](C)(C)C)cc1)NC(=O)OC(C)(C)C)C(=O)NC(Cc1ccccc1)C(=O)NCC(N)=O (stereo not given) (Boc-Y(Ethyl(2-NMe3+))AFG-NH2; configuration not given here)
Data returned: > 100 µM

Data request: Specify measured TGI for COC(=O)C1=C(C(=O)OC)SC(=C(Cl)C(=S)Nc2ccccc2O)S1 .
Data returned: > 50 µM

Data request: Annotate the molecule CC(C)(C)OC(=O)NC(CCC(=O)OCc1ccccc1)C(=O)NCCCO (stereo not given) with its measured TGI.
Data returned: > 100 µM

Data request: Fill in TGI for record Cc1ccc(C2SC(N)=Nc3c2c(C)nn3C(=O)c2ccccc2O)cc1 (stereo not given)
Data returned: > 10 µM

Data request: Report measured TGI; entry is C=C1C(=O)O[C@H]2[C@H](OC(C)=O)[C@@H](C)CCC/C(C)=C/CC[C@@]3(C)O[C@@H]3C[C@@H]12
Data returned: 8.05 µM

Data request: Specify measured TGI for NC(CCC(=O)NC(CSC(=O)N(O)c1ccccc1)C(=O)NCC(=O)O)C(=O)O (stereo not given) .
Data returned: > 1000 µM

* * *

- Test system: OVCAR-3 ovarian
- assayProtocol: NCI tumour cell line growth inhibition, 48 h
measurementType: TGI (µM)
Kindly provide the numeric value in µM only, without the unit symbol.

Below: 4 compounds and their reported TGI.
compound	unitOfMeasure	TGI
N#CC1=C(N)Oc2c(sc3c(Br)cccc23)C1c1ccc(Br)cc1 (stereo not given)	µM	1.15
O=C(O)C1C(C(=O)O)C23CC2(C(=O)O)C2(C(=O)O)CCC3=C3CCCC312 (stereo not given)	µM	11.7
CCC[CH2][Sn]([CH2]CCC)([CH2]CCC)[O]C(=O)c1ccc(Cl)cc1Cl	µM	0.259
OC(c1cc(-c2ccc(Cl)cc2)nc2ccccc12)C1CCCCN1 (stereo not given)	µM	3.98

Data request: Supply recorded TGI for O=S(=O)(c1cccc2c(Cl)cccc12)N1CCCNCC1 here.
Data returned: 29.4

Data request: Give TGI for CC1(c2cccc(Cl)c2)CC(c2cccc(Cl)c2)=C(C#N)C(=C(C#N)C#N)N1 (stereo not given)
Data returned: 23

Data request: Give the reported TGI for this compound. CNC(=O)CC1NC(=O)c2csc(n2)-c2ccc(-c3nc(C4=NC(C(=O)N5CCCC5C(N)=O)CO4)cs3)nc2-c2csc(n2)-c2csc(n2)C(C(C)C)NC(=O)CNC(=O)c2csc(n2)C(C(C)C)NC(=O)c2nc1sc2C (stereo not given)
Data returned: 0.937

Data request: Respond only with TGI recorded for CN(C)CCCN1c2ccccc2C(C)(C)c2ccccc21
Data returned: 28.9

* * *

- System: MDA-MB-435
Parameter call: string, one of y for active, n for inactive

For orientation, consider the following solved cases.
molecule	categoryLabel
C=C(C)[C@@H]1CC[C@]2(C)[C@H](CC=C3[C@@H]4[C@@H](C)[C@H](C)CC[C@]4(C(N)=O)CC[C@]32C)[C@@]1(C)CCC#N	n
COc1cccc(OCCCN)c1-c1cc(Nc2cnc(C#N)cn2)n[nH]1	y
CCC[CH2][Sn]([CH2]CCC)([CH2]CCC)[O]C(=O)c1ccc(Cl)cc1Cl	y
COc1cc(NC(=O)CSc2nc3ccc(C)cc3c(=O)n2Cc2ccccc2)cc(OC)c1OC	n
S=c1ssc(Oc2ccccc2)c1Cl	n

Data request: Field: outcome | Entry: COC(=O)C1CCCN1C(=O)[C@@H]1CCCN1C(=O)[C@H](Cc1c[nH]c2ccccc12)NC(=S)Nc1cc(C(F)(F)F)cc(C(F)(F)F)c1 (stereo partly drawn)
Data returned: n

Data request: I'd appreciate the recorded outcome for O=P(CCCCP(=O)(c1ccccc1)c1ccccc1)(c1ccccc1)c1ccccc1.[Cl][Sn]([Cl])([c]1ccccc1)[c]1ccccc1 from this test.
Data returned: n

Data request: I'd appreciate the recorded outcome for Cc1cc(=O)[nH]c2cc3c(c4c(n3Cc3ccc(Cl)cc3Cl)CC(C)(C)CC4=O)c(O)c12 from this test.
Data returned: n

* * *

- Tested on: K-562 leukemia
- assayProtocol: NCI tumour cell line growth inhibition, 48 h
Below, each of the compounds is paired with its reported GI50 value.

// below: answered compounds
compound	testedTarget	GI50
COc1cc(/C=N/NC(=O)c2cnn3c2NC(c2ccccc2)C3)ccc1Oc1ccccc1 (stereo unspecified)	K-562 leukemia	571 nM
CCC[CH2][Sn]([CH2]CCC)([CH2]CCC)[O]C(=O)c1ccc(Cl)cc1Cl	K-562 leukemia	263 nM
CC(C)COCC(CN(Cc1ccccc1)c1ccccc1)N1CCCC1 (stereo unspecified)	K-562 leukemia	3430 nM
CNCCNc1c2c(c(NCCNC)c3[nH]ccc13)C(=O)c1ccccc1C2=O	K-562 leukemia	126 nM
FC(F)(F)c1ccc(C#Cc2ccccc2C#Cc2ccccc2)cc1	K-562 leukemia	34200 nM

Please turn your attention to the following entry.
Data request: Entry CCN1Cc2c(ccc(F)c2C#N)O[C@@H](C)CNC(=O)c2c(N)nn3ccc1nc23 needs its GI50 filled in; supply it.
Data returned: 175 nM

* * *

Attribute: TGI
- Test system: DMS 273 small cell lung
- assayProtocol: NCI tumour cell line growth inhibition, 48 h

Some entries whose results are on file:
compound	TGI
COc1ccc(S(=O)(=O)N/N=C/c2cc(I)cc([N+](=O)[O-])c2O)cc1OC	> 100 µM
COc1cc2c(cc1OC)[C@H]1C(COC(=O)c3ccccc3)CSC(=Nc3ccccc3)N1CC2 (stereo partly drawn)	> 100 µM

Alright, here's another compound for you.
Data request: Annotate the compound C/C=C1/CCC2c3[nH]c4ccccc4c3CCN2C1 (stereo not drawn) with its measured TGI.
Data returned: > 100 µM

* * *

- Tested on: UO-31 renal
- assayProtocol: NCI tumour cell line growth inhibition, 48 h
Reported TGI by item:

Below, each entry is followed by its recorded TGI result.
compound	TGI
CCOC(=O)[C@@H]1CCN2CN(c3ccc(OC)cc3)N=C(c3ccccc3)[C@@]12c1ccccc1	77.2 µM
O=c1[nH]c(=O)c2cc(C3CC(O)C(CO)O3)ccc2[nH]1 (stereo not drawn)	> 100 µM

Data request: Identify TGI associated with the compound O=C1CCCC(=O)N1CCc1c[nH]c2ccccc12
Data returned: > 100 µM

* * *

- Test system: SK-MEL-5 melanoma
- assayProtocol: NCI tumour cell line growth inhibition, 48 h
TGI listing for selected molecules.
Number only, in µM; omit the unit.

Data request: Assign TGI to the following record: CCOC(=O)/C(=C\c1ccc(C#N)cc1)C(C)=O
Data returned: 41

Data request: State its TGI for this molecule: Cc1c(F)c(N)c2c(=O)cc(-c3ccc(N)c(F)c3)oc2c1F
Data returned: 67

* * *

TGI by entry:
- System: BT-549 breast
- assayProtocol: NCI tumour cell line growth inhibition, 48 h
Reply with just the number (in µM).

compound	testedTarget	unitOfMeasure	observedResult
OC(CNCC1CCCO1)Cn1c2ccc(Cl)cc2c2cc(Cl)ccc21 (stereo not drawn)	BT-549 breast	µM	27.1
COc1ccc(/C=C(\C#N)n2nnc3ccccc32)cc1	BT-549 breast	µM	17.1
Nc1nc(N)c2c(n1)NC(c1ccc(F)cc1)C1CCc3ccccc3C1=N2 (stereo not drawn)	BT-549 breast	µM	16.6
CCOc1cc2c(cc1O)CC[C@@H]1[C@@H]2CC[C@]2(C)C(N)CC[C@@H]12 (stereo partly drawn)	BT-549 breast	µM	30.8
CN(C)CC1C(=O)O[C@H]2[C@H]1CC/C(COC(=O)c1cc3ccccc3[nH]1)=C\CC[C@@]1(C)O[C@@H]21 (stereo partly drawn)	BT-549 breast	µM	4.48
C[C@]12C[C@@H](c3ccccc3)Nc3ccccc3N1C(c1ccccc1)=NO2	BT-549 breast	µM	90.3
Cc1cc(Cc2cc(C)cc(C(C)(C)C)c2O)c(O)c(Cc2cc(C)cc(C(C)(C)C)c2O)c1	BT-549 breast	µM	10.6
COc1ccc(OC2OC(COC(c3ccccc3)(c3ccc(OC)cc3)c3ccc(OC)cc3)C(O)C(O)C2O)cc1 (stereo not drawn)	BT-549 breast	µM	27

Data request: # return recorded TGI for input Nc1nc2n[nH]nc2c(=O)[nH]1
Data returned: 37.8

Data request: Quick one: give measured TGI for COC(=O)C1CCCN1C(=O)[C@@H]1CCCN1C(=O)[C@H](Cc1c[nH]c2ccccc12)NC(=S)Nc1cc(C(F)(F)F)cc(C(F)(F)F)c1 (stereo partly drawn)
Data returned: 8.03

Data request: Indicate its recorded TGI; the compound in question is COc1cccc2c1/c(=C/c1ccc(N(C)C)cc1)c1cc(-c3ccccc3)[n+](C)n12
Data returned: 0.774
